test-system: Nuclear factor erythroid 2-related factor 2 (Homo sapiens) (UniProt Q16236)
Sequence (Q16236 whole entry): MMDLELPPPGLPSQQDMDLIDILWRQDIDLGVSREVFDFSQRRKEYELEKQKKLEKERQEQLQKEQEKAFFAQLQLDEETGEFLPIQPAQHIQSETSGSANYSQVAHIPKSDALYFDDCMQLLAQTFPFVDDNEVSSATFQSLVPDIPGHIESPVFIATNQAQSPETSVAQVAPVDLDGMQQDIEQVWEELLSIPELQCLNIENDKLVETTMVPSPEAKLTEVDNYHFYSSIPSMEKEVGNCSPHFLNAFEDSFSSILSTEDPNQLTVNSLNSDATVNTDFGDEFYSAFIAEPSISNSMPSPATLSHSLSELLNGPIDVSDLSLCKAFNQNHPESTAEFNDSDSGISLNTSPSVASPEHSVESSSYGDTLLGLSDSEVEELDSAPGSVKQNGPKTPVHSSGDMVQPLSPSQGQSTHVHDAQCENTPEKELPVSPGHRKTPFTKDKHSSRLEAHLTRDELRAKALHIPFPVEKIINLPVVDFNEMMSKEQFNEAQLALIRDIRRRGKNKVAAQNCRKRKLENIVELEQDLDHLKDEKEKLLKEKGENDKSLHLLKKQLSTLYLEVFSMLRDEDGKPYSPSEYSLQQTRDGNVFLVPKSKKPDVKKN
method-notes: Activation of Nrf2 in human HSC3-ARE9 cells assessed as increase of ARE-mediated luciferase expression at 50 uM after 24 hrs relative to control
Type: cell-based
Give fold change (FC) for every item shown.
Give bare numbers.

O=C(COc1cc(=O)oc2ccccc12)Nc1ccc(F)cc1	1.11

Okay, here is my list. What is fold change (FC) for each of these?
1. O=C(COc1ccc2ccc(=O)oc2c1)Nc1ccc(-c2ccccc2)cc1
2. CC(C)(C)c1cc(O)ccc1O
3. COc1ccc(C(=O)COc2cc(=O)oc3ccccc23)cc1
4. O=C(COc1cc2ccccc2oc1=O)Nc1ccc2ccccc2c1
5. O=C(COc1cc2ccccc2oc1=O)c1ccc(-c2ccccc2)cc1

Result block:
1. 1.09
2. 2.01
3. 1.36
4. 1.13
5. 0.98

Okay, here is my list. What is fold change (FC) for each of these?
1. O=C(COc1ccc2ccc(=O)oc2c1)c1ccccc1
2. O=c1ccc2ccc(OC/C(=N\O)c3ccc(-c4ccccc4)cc3)cc2o1
3. COc1ccc(NC(=O)COc2ccc3ccc(=O)oc3c2)cc1
4. O=c1ccc2ccc(O)cc2o1
5. O=C(COc1ccc2oc(=O)ccc2c1)Nc1ccc(-c2ccccc2)cc1
6. O=C(COc1ccc2oc(=O)ccc2c1)c1ccc(-c2ccccc2)cc1
7. O=c1ccc2cc(OC/C(=N\O)c3ccc4ccccc4c3)ccc2o1

Result block:
[1.93, 0.9, 0.98, 0.98, 0.95, 0.85, 1.46]

Okay, here is my list. What is fold change (FC) for each of these?
1. O=c1ccc2ccc(OC/C(=N\O)c3ccccc3)cc2o1
2. O=c1ccc2cc(O)ccc2o1 [6-HYDROXYCOUMARIN]
3. O=c1cc(OC/C(=N\O)c2ccc3ccccc3c2)c2ccccc2o1

Result block:
[2.16, 0.99, 1.43]

Okay, here is my list. What is fold change (FC) for each of these?
1. CC(=O)COc1ccc2ccc(=O)oc2c1
2. O=C(COc1cc2ccccc2oc1=O)c1ccc2ccccc2c1
3. O=C(COc1cc(=O)oc2ccccc12)c1ccccc1
4. O=C(COc1cc2ccccc2oc1=O)Nc1ccccc1
5. O=c1ccc2ccc(OC/C(=N\O)c3ccc(F)cc3)cc2o1
6. O=C(COc1ccc2oc(=O)ccc2c1)Nc1ccc(F)cc1
7. CC(=O)COc1cc(=O)oc2ccccc12
8. O=C(COc1ccc2oc(=O)ccc2c1)Nc1ccc2ccccc2c1

Result block:
1: 1.09; 2: 0.98; 3: 1.98; 4: 2.51; 5: 1.32; 6: 0.95; 7: 0.79; 8: 0.91
